Molecular target: T1, human TL1A (Fitzgerald #30R-AT070) (human, UniProt O95150 72-251, limits assumed)
T1 construct: Coated on the ELISA plate at 1 ug/mL; also called TNFSF15
T1 sequence (looked up): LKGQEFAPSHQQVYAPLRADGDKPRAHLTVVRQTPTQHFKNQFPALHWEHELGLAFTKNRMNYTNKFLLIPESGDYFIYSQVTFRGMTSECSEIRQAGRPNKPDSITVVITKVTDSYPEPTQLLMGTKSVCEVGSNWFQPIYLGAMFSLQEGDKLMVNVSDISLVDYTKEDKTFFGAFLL
Assay: ELISA titration, coated human TL1A, culture supernatant
readout: Kd (nM)
Expressed in nM, but write only the number.

Observe how each entry below is paired with its result.
- binder: "A136 (antibody, human IgG1, V domains shown, human IgG1/kappa (pFuse vectors), culture supernatant) VH: QVQLVQSGAEVKKPGASVKVSCKASGFDIQDTYMHWVKQAPGQGLEWMGRIEPASGHIKYDPKFQGRVTMTRDTSTSTVYMELSSLRSEDTAVYYCARSGGLPDWWGQGTTVTVSS VL: EIVLTQSPGTLSLSPGERATLSCRASSSVSYMYWYQQKPGQAPRPLIYATSNLASGIPDRFSGSGSGTDFTLTISRLEPEDFAVYYCQQWKGNPRTFGGGTKLEIK"
  Kd [nM]: 0.053
- binder: "A147 (antibody, human IgG1, V domains shown, human IgG1/kappa (pFuse vectors), culture supernatant) VH: QVQLVQSGAEVKKPGASVKVSCKASGFDIQDTYMHWVKQRPGQGLEWMGRIEPASGHIKYDPKFQGRVTMTRDTSTSTVYMELSSLRSEDTAVYYCARSGGLPDWWGQGTTVTVSS VL: EIVLTQSPGTLSLSPGERATLSCRASSSVSYMYWYQQKPGQAPRPLIYATSNLASGIPDRFSGSGSGTDFTLTISRLEPEDFAVYYCQQWEGNPRTFGGGTKLEIK"
  Kd [nM]: 0.063

// moving on: another record for Kd
Exercise: Fill in the blank: the reported Kd of A29 (antibody, human IgG1, V domains shown, human IgG1/kappa (pFuse vectors), culture supernatant) VH: QVQLVQSGAEVKKPGASVKVSCKASGFDIQDTYMHWVKQRPGQGLEWIGRIDPASGHTKYDPKFQVRATITTDTSTSTAYLELSSLRSEDTAVYYCARSGGLPDVWGQGTTVTVSS VL: EIVLTQSPGTLSLSPGERATLSCRASSSVSYMYWYQQKPGQAPRPWIYATSNLASGIPDRFSGSGSGTDFTLTISRLEPEDFAVYYCQQWEGNPRTFGGGTKLEIK is ____.
Solution: 0.065
